Test system: Roseburia intestinalis
assay protocol: growth AUC relative to DMSO control (median of replicates) (fraction); higher = more growth (less inhibition), active = hit call of the paper
measurement parameters: 20 µM; 24 h
Please mark YES if the recorded growth AUC is equal to or greater than 1, and NO if it falls below.

molecule	class name
CCOP(=S)(OCC)SCSc1ccc(Cl)cc1	NO
CCc1cccc(C)c1N(C(=O)CCl)[C@@H](C)COC	YES
O=c1oc2ccccc2c(O)c1C(CC(O)c1ccc(-c2ccc(Br)cc2)cc1)c1ccccc1 (stereo not given)	NO
CCSC(=O)N(CC)C1CCCCC1	YES
CCCN(CCOc1c(Cl)cc(Cl)cc1Cl)C(=O)n1ccnc1	NO
COC(=O)NS(=O)(=O)c1ccc(N)cc1	NO
Oc1ccccc1Cl	NO
CCOP(=O)(NC(C)C)Oc1ccc(S(C)(=O)=O)c(C)c1 (stereo not given)	YES
CCC(C)(c1ccc(O)cc1)c1ccc(O)cc1	NO

---

Tested on: Parabacteroides merdae
assay protocol: growth AUC relative to DMSO control (median of replicates) (fraction); higher = more growth (less inhibition), active = hit call of the paper
measurement parameters: 20 µM; 24 h

compound	system tested	growth AUC
CSc1nc(NC(C)C)nc(NC(C)C)n1	Parabacteroides merdae	0.991
Nc1ccc(Cl)cc1Cl	Parabacteroides merdae	1.01
CCCSP(=O)(OCC)Oc1ccc(Br)cc1Cl (centres undefined)	Parabacteroides merdae	0.994
O=C(O)c1ccc(=O)[nH]c1	Parabacteroides merdae	0.983
CCOP(=O)(SC(C)CC)N1CCSC1=O (centres undefined)	Parabacteroides merdae	1.01
CN1CSC(=S)N(C)C1	Parabacteroides merdae	0.976
COC(=O)/C(C)=C/OP(=S)(OC)OC	Parabacteroides merdae	0.999
COc1ccccc1N	Parabacteroides merdae	1.02
N#Cc1c(O)c(Cl)c(Cl)c(C#N)c1Cl	Parabacteroides merdae	0.994

---

growth AUC reference
Tested on: Bacteroides uniformis
assay protocol: growth AUC relative to DMSO control (median of replicates) (fraction); higher = more growth (less inhibition), active = hit call of the paper
measurement parameters: 20 µM; 24 h
quantity measured: growth AUC

molecule	quantity measured	quantitative result
CCCSP(=O)(OCC)SCCC	growth AUC	0.98
CCC1COC(Cn2cncn2)(c2ccc(Cl)cc2Cl)O1 (stereo unspecified)	growth AUC	0.956
Clc1ccc(Cl)c(Cl)c1Cl	growth AUC	0.996
COc1cccc(C(=O)NN(C(=O)c2cc(C)cc(C)c2)C(C)(C)C)c1C	growth AUC	0.958
CC(Oc1ccc(Oc2nc3ccc(Cl)cc3o2)cc1)C(=O)O (racemic)	growth AUC	0.962
COC(=O)c1cc(Oc2ccc(Cl)cc2Cl)ccc1[N+](=O)[O-]	growth AUC	0.814
O=S1(=O)OCC2C(CO1)C1(Cl)C(Cl)=C(Cl)C2(Cl)C1(Cl)Cl (stereo unspecified)	growth AUC	0.914
CCOP(=O)(NC(C)C)Oc1ccc(S(C)(=O)=O)c(C)c1 (stereo unspecified)	growth AUC	1.01
CC(Cl)(Cl)C(=O)O	growth AUC	1.02
CNc1cnn(-c2cccc(C(F)(F)F)c2)c(=O)c1Cl	growth AUC	0.991
CN(C)C(=O)Nc1cccc(OC(=O)NC(C)(C)C)c1	growth AUC	0.883
c1nc[n]([Sn]([CH]2CCCCC2)([CH]2CCCCC2)[CH]2CCCCC2)n1	growth AUC	0.901
O=C(NC(=O)c1ccccc1Cl)Nc1ccc(OC(F)(F)F)cc1	growth AUC	1.01
ClC1(Cl)C2(Cl)C3(Cl)C4(Cl)C(Cl)(Cl)C5(Cl)C3(Cl)C1(Cl)C5(Cl)C24Cl (stereo unspecified)	growth AUC	0.937
CNC(=O)c1cc(C#N)cc(C)c1NC(=O)c1cc(Br)nn1-c1ncccc1Cl	growth AUC	0.995
CCOc1cc(OP(=S)(OC)OC)nc(CC)n1	growth AUC	0.996
COC(=O)c1ccccc1CS(=O)(=O)NC(=O)Nc1nc(OC)cc(OC)n1	growth AUC	1.01
CCCSC(=O)N(CCC)CCC	growth AUC	1.02
CC1(C)OC(c2ccco2)CN1C(=O)C(Cl)Cl (stereo unspecified)	growth AUC	1.02
C[C@@H](Oc1ccc(Oc2ccc(C(F)(F)F)cn2)cc1)C(=O)O	growth AUC	0.995
CC(C)OC(=O)Nc1ccccc1	growth AUC	0.98
